Reference source: patent US11332463B2

- tested-system: human α7 nicotinic acetylcholine receptor (HEK cell line stably expressing human RIC-3 and human α7) (Homo sapiens)
- Construct: host or cells: HEK cell line (PrecisION hnAChR α7/RIC-3)
- Sequence (P36544 23-502): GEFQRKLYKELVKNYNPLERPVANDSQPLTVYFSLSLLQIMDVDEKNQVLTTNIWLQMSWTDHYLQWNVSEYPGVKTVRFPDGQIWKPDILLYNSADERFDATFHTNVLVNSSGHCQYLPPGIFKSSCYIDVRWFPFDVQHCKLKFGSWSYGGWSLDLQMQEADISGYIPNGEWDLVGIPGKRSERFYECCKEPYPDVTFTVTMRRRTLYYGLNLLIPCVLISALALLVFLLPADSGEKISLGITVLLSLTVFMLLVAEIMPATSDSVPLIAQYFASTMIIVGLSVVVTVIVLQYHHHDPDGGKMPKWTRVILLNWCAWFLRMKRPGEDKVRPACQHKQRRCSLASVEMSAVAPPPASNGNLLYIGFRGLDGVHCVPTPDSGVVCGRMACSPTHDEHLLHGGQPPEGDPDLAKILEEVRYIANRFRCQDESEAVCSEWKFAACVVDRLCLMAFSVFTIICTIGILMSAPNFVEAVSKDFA
- protocol: Automated patch-clamp electrophysiology functional assay (Assay A), IonFlux HT, whole-cell population patch
- Format: cell-based
- test-settings: HEK cells expressing human α7/RIC-3; test compound with or without 40 μM acetylcholine; holding potential −60 mV; room temperature; read-out: α7 nAChR Potency
property-measured: EC50

> print(dat)
                                    compound     measurement
 1  Cc1noc(C)c1Cc1nc([C@@H]2CC23CCN(S(N)(=O)=O)CC3)no1 [Example E28]  500 to 5000 nM
 2  NS(=O)(=O)N1CCC2(CC1)C(c1nc(-c3ccccc3)no1)C2(F)F (stereo not shown) [Example A2]   100 to 500 nM
 3  NS(=O)(=O)N1CCC2(CC1)C[C@H]2c1nnc(-c2cccc(OC(F)(F)F)c2)o1 [Example F3]  500 to 5000 nM
 4  Cc1cnc2cc(-c3nc([C@@H]4C(F)(F)C45CCN(S(N)(=O)=O)CC5)no3)ccn12 [Example E36]  500 to 5000 nM
 5  NS(=O)(=O)N1CCC2(C(F)C1)C(c1nc(-c3ccc(F)cc3C(F)(F)F)no1)C2(F)F (stereo not shown) [Example I17]  500 to 5000 nM
 6  NS(=O)(=O)N1CCC2(CC1)[C@H](c1nnc(-c3ccnn3C3CC3)o1)C2(F)F [Example 16]   100 to 500 nM
 7  NS(=O)(=O)N1CCC2(CC1)[C@H](c1noc(-c3ccnnc3C3CC3)n1)C2(F)F [Example E49]   100 to 500 nM
 8  NS(=O)(=O)N1CCC2(CC1)C[C@H]2c1noc(-c2ccn(CC(F)(F)F)n2)n1 [Example E25]  500 to 5000 nM
 9  NS(=O)(=O)N1CCC2(CC1)C[C@H]2c1noc(-c2ccccc2-c2ncccn2)n1 [Example E76]  500 to 5000 nM
10  Cc1ccc(C(F)(F)F)cc1-c1nc([C@@H]2CC23CCN(S(N)(=O)=O)CC3)no1 [Example 1]        < 100 nM
11  NS(=O)(=O)N1CCC2(CC1)C[C@H]2c1noc(-c2ccccc2C(F)(F)F)n1 [Example D17]  500 to 5000 nM
12  Cn1ncc(-c2nc([C@@H]3C(F)(F)C34CCN(S(N)(=O)=O)CC4)no2)c1C(F)(F)F [Example E38]   100 to 500 nM
13  NS(=O)(=O)N1CCC2(CC1)C(c1nc(-c3ccn4ccnc4c3)no1)C2(F)F (stereo not shown) [Example C11]  500 to 5000 nM
14  NS(=O)(=O)N1CCC2(CC1)[C@H](c1noc(-c3cnn4c3CSCC4)n1)C2(F)F [Example 18]  500 to 5000 nM
15  COc1ccc(Cl)cc1-c1noc(C2CC23CCN(S(=O)(=O)CCc2ccccc2)CC3)n1 (racemic) [Example B5]  500 to 5000 nM
16  NS(=O)(=O)N1CCC2(CC1)[C@H](c1noc(-c3ccnc(OC4CC4)c3)n1)C2(F)F [Example E33]   100 to 500 nM
